system: SW480; test: TCF/Wnt firefly luciferase reporter signal relative to plate median (fraction of plate median); higher = higher Wnt reporter signal; conditions: 5 µM; treatment time 24 h; reporter: 7TFP
ENDPOINT NAME: TCF/Wnt firefly luciferase reporter signal
Please give only the number in your answer, with no unit.

// TCF/Wnt firefly luciferase reporter signal value for C[C@H]1O[C@H](O[C@H]2[C@H](O)[C@@H](O)[C@@H](O)[C@H](O)[C@@H]2O)[C@@H](N)C[C@@H]1NC(=N)C(=O)O : 0.949

In plain terms, CC(=O)O[C@H]1C[C@@H](OC(C)=O)C(C)(C)C2C[C@@H](OC(C)=O)[C@]3(C)C(CC[C@@]4(C)[C@H](c5ccoc5)C(=O)[C@H]5O[C@]543)[C@]21C (stereo partly drawn) has a documented TCF/Wnt firefly luciferase reporter signal of 1.09

TCF/Wnt firefly luciferase reporter signal measured on OC1CCCCC1N1CCC(c2ccccc2)CC1 (stereo not drawn) = 0.92

Query CN1[C@@H]2CC[C@H]1C[C@@H](OC(c1ccccc1)c1ccccc1N)C2 (stereo partly drawn) yields TCF/Wnt firefly luciferase reporter signal of 0.871

Lab note: C[C@]12CC[C@H](O)C[C@@H]1CC[C@@H]1[C@@H]2CC[C@]2(C)C(=O)CC[C@@H]12 gave TCF/Wnt firefly luciferase reporter signal of 1.01

The recorded TCF/Wnt firefly luciferase reporter signal for entry COP(=S)(OC)Oc1ccc(SC)c(C)c1 equals 1.01

Measured TCF/Wnt firefly luciferase reporter signal, N.N.[Cl][Pt][Cl] : 0.954

Record summary for O=[N+]([O-])c1cc([As](=O)(O)O)ccc1O : reported TCF/Wnt firefly luciferase reporter signal = 0.959

Summary for this molecule, CO[C@]12C[C@@H](COC(=O)c3cncc(Br)c3)CN(C)[C@@H]1Cc1cn(C)c3cccc2c13 : TCF/Wnt firefly luciferase reporter signal is 1

For this molecule ( COc1c2c(cc3c1OCO3)CC[N+](C)=C2 ), measured TCF/Wnt firefly luciferase reporter signal is 1.07

Note to self: TCF/Wnt firefly luciferase reporter signal recorded for NCCc1ccc(O)cc1 was 1.07

The measured TCF/Wnt firefly luciferase reporter signal associated with C[C@@H](CO)NC(=O)[C@@H]1C=C2c3cccc4[nH]cc(c34)C[C@H]2N(C)C1 reads 0.98

Quick note, TCF/Wnt firefly luciferase reporter signal for COc1ccc2c(c1)[C@]13CCCC[C@@H]1[C@H](C2)N(C)CC3 landed at 1

Short answer for COC[C@]12CN(C=O)[C@@H]3[C@@H]4[C@H](OC)[C@H]1[C@@]3([C@@H](OC)C[C@H]2O)[C@@H]1C[C@@]2(O)[C@H](OC(=O)c3ccccc3)[C@@H]1[C@]4(OC(C)=O)[C@@H](O)[C@@H]2OC : TCF/Wnt firefly luciferase reporter signal was 1.02

So for COP(=S)(OC)Oc1ccc(Sc2ccc(OP(=S)(OC)OC)cc2)cc1 , the logged TCF/Wnt firefly luciferase reporter signal turned out to be 1.04

TCF/Wnt firefly luciferase reporter signal reported for this molecule C[C@]12CC[C@H](O)CC1=CC[C@@H]1[C@@H]2CC[C@]2(C)C(=O)CC[C@@H]12 : 0.916

The molecule listed as C[C@H]1C(=O)O[C@@H]2CCN3CC=C(COC(=O)[C@](C)(O)[C@]1(C)O)[C@H]23 has a reported TCF/Wnt firefly luciferase reporter signal of 0.998

The recorded TCF/Wnt firefly luciferase reporter signal for CN[C@@H]1[C@@H](O)[C@@H](O[C@@H]2[C@@H](O)[C@H](O[C@H]3O[C@H]([C@@H](C)O)[C@@H](O)[C@H](O)[C@H]3N)[C@@H](N)C[C@H]2N)OC[C@]1(C)O is 1.08
